Let's look at some compounds and their measured MIC.
Test system: Staphylococcus aureus
TEST NAME: Antibacterial activity against methicillin-resistant Staphylococcus aureus N315 after 24 hrs by micro broth dilution assay
Assay type: functional
MEASUREMENT PARAMETERS: N315, 24 h
Express it in µg/mL; write the number only.

CCCCn1c(-c2cc(-c3ccc(Cl)cc3Cl)nc(N)n2)nc2ccccc21; 512

Enquiry: // lookup MIC for `CCCCCCCn1c(-c2cc(-c3ccc(C)cc3)nc(N)n2)nc2ccccc21`
Return: 32

Enquiry: // lookup MIC for `Nc1nc(-c2ccc(F)cc2)cc(-c2nc3ccccc3[nH]2)n1`
Return: 128

Enquiry: // lookup MIC for `CCCCn1c(-c2cc(-c3ccc(F)cc3)nc(N)n2)nc2ccccc21`
Return: 256

Enquiry: // lookup MIC for `CCCCCCCn1c(C(=O)/C=C/c2ccc(F)cc2)nc2ccccc21`
Return: 64

Enquiry: // lookup MIC for `Nc1nc(-c2nc3ccccc3[nH]2)cc(-c2ccc(Cl)cc2Cl)n1`
Return: 8

Enquiry: // lookup MIC for `CCCCCCCCn1c(-c2cc(-c3ccc(Cl)cc3)nc(N)n2)nc2ccccc21`
Return: 128

Enquiry: // lookup MIC for `CCCCn1c(-c2cc(-c3ccc(C)cc3)nc(N)n2)nc2ccccc21`
Return: 16

Enquiry: // lookup MIC for `CCCCCCCCn1c(C(=O)/C=C/c2ccc(F)cc2)nc2ccccc21`
Return: 512

Enquiry: // lookup MIC for `CCCCCCCn1c(-c2cc(-c3ccc(F)cc3)nc(N)n2)nc2ccccc21`
Return: 256

###

System: Staphylococcus aureus
TEST NAME: Ratio of MBC for Staphylococcus aureus ATCC 25923 to MIC for Staphylococcus aureus ATCC 25923
Format: functional
MEASUREMENT TYPE: Ratio

CCCCCCCn1c(-c2cc(-c3ccc(Cl)cc3Cl)nc(N)n2)nc2ccccc21; 2
Cc1ccc(-c2cc(-c3nc4ccccc4[nH]3)nc(N)n2)cc1; 1
CCCCn1c(-c2cc(-c3ccc(C)cc3)nc(N)n2)nc2ccccc21; 4

Enquiry: // lookup Ratio for `Nc1nc(-c2ccc(Cl)cc2)cc(-c2nc3ccccc3[nH]2)n1`
Return: 4

Enquiry: // lookup Ratio for `CCCCn1c(-c2cc(-c3ccc(Cl)cc3)nc(N)n2)nc2ccccc21`
Return: 1

Enquiry: // lookup Ratio for `Nc1nc(-c2ccc(F)cc2)cc(-c2nc3ccccc3[nH]2)n1`
Return: 1

Enquiry: // lookup Ratio for `CCCCn1c(-c2cc(-c3ccc(F)cc3)nc(N)n2)nc2ccccc21`
Return: 2

Enquiry: // lookup Ratio for `Nc1nc(-c2nc3ccccc3[nH]2)cc(-c2ccc(Cl)cc2Cl)n1`
Return: 1

Enquiry: // lookup Ratio for `CCCCCCn1c(-c2cc(-c3ccc(Cl)cc3)nc(N)n2)nc2ccccc21`
Return: 2

###

System: Staphylococcus aureus
TEST NAME: Antibacterial activity against methicillin-resistant Staphylococcus aureus N315 after 24 hrs by micro broth dilution assay
Assay type: functional
MEASUREMENT PARAMETERS: N315, 24 h
Let's look at some compounds and their measured MIC.
Express it in µg/mL; write the number only.

Worked cases, MIC given:
CCCCCCn1c(C(=O)/C=C/c2ccc(Cl)cc2)nc2ccccc21; 512
CCCCCCn1c(-c2cc(-c3ccc(C)cc3)nc(N)n2)nc2ccccc21; 16
CCCCCCCn1c(-c2cc(-c3ccc(Cl)cc3Cl)nc(N)n2)nc2ccccc21; 512
CCCCCCn1c(C(=O)/C=C/c2ccc(C)cc2)nc2ccccc21; 16

Okay, next one:
Enquiry: Hello, I am looking for reported MIC with Staphylococcus aureus for `CCCCCCCCn1c(C(=O)/C=C/c2ccc(Cl)cc2)nc2ccccc21` . Could you help?
Return: 512

###

System: Pseudomonas aeruginosa
TEST NAME: Antibacterial activity against Pseudomonas aeruginosa after 24 hrs by micro broth dilution assay
Assay type: functional
MEASUREMENT TYPE: MIC (µg/mL)
Express it in µg/mL; write the number only.

Worked cases, MIC given:
CCCCCCCn1c(C(=O)/C=C/c2ccc(Cl)cc2Cl)nc2ccccc21; 512
O=C(/C=C/c1ccc(F)cc1)c1nc2ccccc2[nH]1; 128
CCCCCCCn1c(-c2cc(-c3ccc(Cl)cc3)nc(N)n2)nc2ccccc21; 64
CCCCCCn1c(-c2cc(-c3ccc(F)cc3)nc(N)n2)nc2ccccc21; 128
CCn1cc(C(=O)O)c(=O)c2cc(F)c(N3CCNCC3)cc21 [NORFLOXACIN]; 1

Enquiry: // lookup MIC for `CCCCCCn1c(C(=O)/C=C/c2ccc(Cl)cc2)nc2ccccc21`
Return: 512

Enquiry: // lookup MIC for `CCCCCCn1c(C(=O)/C=C/c2ccc(F)cc2)nc2ccccc21`
Return: 512

Enquiry: // lookup MIC for `CCCCn1c(C(=O)/C=C/c2ccc(C)cc2)nc2ccccc21`
Return: 16

Enquiry: // lookup MIC for `CCCCCCCn1c(-c2cc(-c3ccc(Cl)cc3Cl)nc(N)n2)nc2ccccc21`
Return: 64

// provenance: ChEMBL document CHEMBL4251572
